# System: A375-XP cells (Vemurafenib-resistant)
# EXPERIMENTAL PROTOCOL: Kinase inhibitor library screening, PrestoBlue cell viability, 1 or 10 μM, 72 h
# CONDITIONS USED: A375 XP, 10μΜ, 72 h; in %
READOUT TYPE: cell viability, A375 XP, 10μΜ

COMPOUND	cell viability, A375 XP, 10μΜ
CN(C)Cc1cccc(N/C(=C2\C(=O)Nc3cc(C(=O)N(C)C)ccc32)c2ccccc2)c1	88.6
O=C(NOCC1CC1)c1ccc(F)c(F)c1Nc1ccc(I)cc1Cl	12.9
COc1cccc(-c2cc(=O)c3ccccc3o2)c1N	94.1

INPUT: Field request: cell viability, A375 XP, 10μΜ | item: `C=CC(=O)Nc1cccc(Sc2nc(Nc3ccc(N4CCN(C)CC4)cc3)ncc2Cl)c1`
OUTPUT: 0.5

INPUT: Field request: cell viability, A375 XP, 10μΜ | item: `COc1cc2ncnc(Nc3ccc(O)c(Br)c3)c2cc1OC`
OUTPUT: 90.7

INPUT: Field request: cell viability, A375 XP, 10μΜ | item: `CCN1CCN(Cc2ccc(-c3cc4c(N[C@H](C)c5ccccc5)ncnc4[nH]3)cc2)CC1`
OUTPUT: 70.7

INPUT: Field request: cell viability, A375 XP, 10μΜ | item: C#Cc1cccc(Nc2ncnc3cc(OCCOC)c(OCCO)cc23)c1 [OSI-420 (Desmethyl Erlotinib)]
OUTPUT: 79.2

INPUT: Field request: cell viability, A375 XP, 10μΜ | item: CS(=O)(=O)CCNCc1ccc(-c2ccc3ncnc(Nc4ccc(OCc5cccc(F)c5)c(Cl)c4)c3c2)o1.Cc1ccc(S(=O)(=O)O)cc1.Cc1ccc(S(=O)(=O)O)cc1 [Lapatinib Ditosylate (Tykerb)]
OUTPUT: 72.3

INPUT: Field request: cell viability, A375 XP, 10μΜ | item: CNC(=O)c1c(F)cccc1Nc1nc(Nc2cc3c(cc2OC)CCN3C(=O)CN(C)C)nc2[nH]ccc12 [GSK1838705A, reference compound]
OUTPUT: 11.1

INPUT: Field request: cell viability, A375 XP, 10μΜ | item: `CCO.N#CC(=C(/N)Sc1ccccc1N)/C(C#N)=C(\N)Sc1ccccc1N`
OUTPUT: 60.2
